# Tested on: HaCaT
# Assay Info: MTT assay for cytotoxicity
# Format: cell-based, human
# Condition Parameters: Homo sapiens, HaCaT; converted to µM
Measurement Type: IC50 (µM)
Give just the numeric value; µM need not be written.

Enquiry: Form entry - test system: HaCaT; read-out: IC50; compound: CC(C)=CCCC1(C)C(CC=C(C)C)CC2C(=O)C1(C(=O)C(C)C)C(=O)C(CC=C(C)C)=C2O (stereo not shown)
Return: 3.65

Every entry's value here was drawn from paper PMC12566971.
